Data provenance: patent US5652133A

- experimental.system: MIP-1α/RANTES receptor (Homo sapiens)
- Construct: I.D. No. 1; expressed in transfected cells; host or cells: Xenopus laevis oocytes microinjected with receptor cRNA
- Sequence (P32246 1-355): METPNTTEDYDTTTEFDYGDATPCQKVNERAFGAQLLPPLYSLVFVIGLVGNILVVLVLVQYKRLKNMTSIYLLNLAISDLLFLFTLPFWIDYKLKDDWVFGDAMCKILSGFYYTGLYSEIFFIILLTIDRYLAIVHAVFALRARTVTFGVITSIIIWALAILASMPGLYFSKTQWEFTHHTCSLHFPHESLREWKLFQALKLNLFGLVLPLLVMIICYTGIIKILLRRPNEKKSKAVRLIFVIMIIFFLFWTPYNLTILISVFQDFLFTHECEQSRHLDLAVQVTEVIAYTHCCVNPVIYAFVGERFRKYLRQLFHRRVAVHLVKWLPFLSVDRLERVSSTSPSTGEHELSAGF
- procedure.text: Calcium efflux assay in Xenopus oocytes injected with MIP-1α/RANTES receptor cRNA
- Format: cell-based
- experimental.context: calcium efflux, oocytes injected with receptor cRNA
observed.property: EC50

Record RANTES: recombinant human β chemokine, Regulated on Activation, Normal T Expressed and Secreted (Genzyme) . Reported EC50: ~50 nM
